testConditions: in DMF, 288.15 K
property: solubility (mole fraction)
Reply briefly: the number, and no unit.

solubility (mole fraction) reported for this molecule C=C1CCN([C@H](C)[C@](O)(Cn2cncn2)c2ccc(F)cc2F)CC1 : 0.281

---

testConditions: in propylene glycol, 308.15 K
property: solubility (mole fraction)

solubility (mole fraction) reported for this compound C=C1CCN([C@H](C)[C@](O)(Cn2cncn2)c2ccc(F)cc2F)CC1 : 0.0424

---

testConditions: in dichloromethane, 293.15 K
property: solubility (mole fraction)
Reply briefly: the number, and no unit.

solubility (mole fraction) reported for this compound C=C1CCN([C@H](C)[C@](O)(Cn2cncn2)c2ccc(F)cc2F)CC1 : 0.34
